Quick record of AC50 values for Cholecystokinin receptor type A (Homo sapiens, UniProt P32238).

compound="CCC1(CC)C(=O)NCC(C)C1=O (stereo not drawn)" measured_on="Cholecystokinin receptor type A (Homo sapiens, UniProt P32238)" measure=AC50 meas_value="> 30 µM"

Continue with the compound presented below.
Form field AC50 for item CC(C)(C)NCC(O)COc1cccc2c1CCC(=O)N2 (stereo not drawn) on Cholecystokinin receptor type A (Homo sapiens, UniProt P32238): > 10 µM

###

Examples of compounds with documented AC50 follow.
# measured on: Histamine H1 receptor (Homo sapiens, UniProt P35367)
# Sequence (P35367 whole entry): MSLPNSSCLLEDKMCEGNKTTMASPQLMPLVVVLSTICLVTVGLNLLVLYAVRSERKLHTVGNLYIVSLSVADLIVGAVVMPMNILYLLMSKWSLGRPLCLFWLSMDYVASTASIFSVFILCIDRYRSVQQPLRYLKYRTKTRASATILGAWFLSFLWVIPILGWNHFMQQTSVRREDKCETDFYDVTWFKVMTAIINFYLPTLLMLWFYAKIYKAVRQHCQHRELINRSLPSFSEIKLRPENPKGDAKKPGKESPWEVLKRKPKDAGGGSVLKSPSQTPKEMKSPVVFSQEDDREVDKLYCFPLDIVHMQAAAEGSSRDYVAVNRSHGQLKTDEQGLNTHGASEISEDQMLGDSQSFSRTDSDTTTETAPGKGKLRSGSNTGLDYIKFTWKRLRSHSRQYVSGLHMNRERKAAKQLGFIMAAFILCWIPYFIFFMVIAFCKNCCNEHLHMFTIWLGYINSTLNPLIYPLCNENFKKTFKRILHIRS
# Format: functional, cell-based

// below: answered compounds
compound="COc1ccc(C(=O)Nc2ccccc2CCC2CCCCN2C)cc1 (centres undefined) [ENCAINIDE]" meas_value="> 30 µM"
compound=CN1CCN(C2=Nc3ccccc3Sc3ccc(Cl)cc32)CC1 meas_value="0.63 µM"
compound=CN(C)CCc1c[nH]c2ccc(C[C@H]3COC(=O)N3)cc12 meas_value="> 30 µM"

Please look at the following compound next.
So, CCC1(CC)C(=O)NCC(C)C1=O (centres undefined) ? Its AC50 was > 30 µM
